Each record here notes measured EC50, CreLuc assay, 0.5% hP.
- Assayed system: human GLP-1 receptor (human, UniProt P43220 24-463)
- Test summary: cell-based or functional assay
Non-standard residues stand in square brackets, D forms with d. No end group written: not given here. Aib = CC(C)(N)C(=O)O

>  <Binder>
YXEGTFTSDYSIXLEKQAQXAFVQWLIKGGQRSYASLRHYYNWLTRQRY (Aib at 2, 13, 20; K28 side chain: C20DA-gGlu-gGlu-gGlu-gGlu-gGlu-gGlu-eLys; C-terminal NH2) [Compound 3]

>  <EC50, CreLuc assay, 0.5% hP / nM>
0.45

$$$$
>  <Binder>
YXEGTFTSDYSIXLEKQAQXAFVEWLIKGGPSSGASLRHYYNWLTRQRY (Aib at 2, 13, 20; NMeQ 47; K28 side chain: C20DA-gGlu-gGlu-gGlu-gGlu-gGlu-gGlu-eLys; C-terminal NH2) [Compound 85]

>  <EC50, CreLuc assay, 0.5% hP / nM>
0.15

$$$$
>  <Binder>
YXEGTFTSDYSIXLEKQAQXAFVEWLIKGGPSSGQSXRHYYNWLTRQRY (Aib at 2, 13, 20, 37; K28 side chain: C20DA-gGlu-gGlu-gGlu-gGlu-gGlu-gGlu-eLys; C-terminal NH2) [Compound 44]

>  <EC50, CreLuc assay, 0.5% hP / nM>
0.07

$$$$
>  <Binder>
YXEGTFTSDYSIXLEKQAEXAFVQWLIKGGPSSGASLRHYYNWLTRQRY (Aib at 2, 13, 20; K28 side chain: C18DA-gGlu-gGlu-gGlu-gGlu-gGlu-gGlu-eLys; C-terminal NH2) [Compound 51]

>  <EC50, CreLuc assay, 0.5% hP / nM>
0.15

$$$$
>  <Binder>
Y[Aib]EGTFTSDYSI[Aib]LEKQAQ[Aib]AFVQWLIKGGPESGASLRHYYNWLTRQRY-NH2 (not fully specified (residue 28); also: TFA salt) [Compound 55]

>  <EC50, CreLuc assay, 0.5% hP / nM>
0.09

$$$$
